Assay: Drug excretion in Sprague-Dawley rat feces treated with [14C]brivanib alaninate at 100 mg/kg, po administered as single dose via gavage by HPLC analysis
Type: ADME, organism-based
Settings: in vivo
The reader will find reported Compound recovery values listed item by item below.
endpoint: Compound recovery (%)

[[record]]
structure_smiles_string = "Cc1c(OC[C@@H](C)OS(=O)(=O)O)cn2ncnc(Oc3ccc4[nH]c(C(=O)O)cc4c3F)c12"
endpoint = "Compound recovery"
measured_result = 5.7

[[record]]
structure_smiles_string = "Cc1c(OC[C@@H](C)OS(=O)(=O)O)cn2ncnc(Oc3ccc4[nH]c(CO)cc4c3F)c12"
endpoint = "Compound recovery"
measured_result = 4.8

[[record]]
structure_smiles_string = "Cc1cc2c(F)c(Oc3ncnn4cc(OC[C@@H](C)O)c(C)c34)ccc2[nH]1"
endpoint = "Compound recovery"
measured_result = 1.8


----------
Reported Compound recovery values for the following compounds.
Test system: Plasma
Test: Drug level in human plasma assessed as compound formation treated with [14C]brivanib alaninate at 800 mg, po administered as single dose via gavage measured after 8 hrs by HPLC analysis
Type: ADME, organism-based
Settings: in vivo
endpoint: Compound recovery (%)

[[record]]
structure_smiles_string = "Cc1c(OC[C@@H](C)OS(=O)(=O)O)cn2ncnc(Oc3ccc4[nH]c(CO)cc4c3F)c12"
measured_result = 1.7

[[record]]
structure_smiles_string = "Cc1cc2c(F)c(Oc3ncnn4cc(OC[C@@H](C)OS(=O)(=O)O)c(C)c34)ccc2[nH]1"
measured_result = 9.8

[[record]]
structure_smiles_string = "Cc1c(OS(=O)(=O)O)cn2ncnc(Oc3ccc4[nH]c(C(=O)O)cc4c3F)c12"
measured_result = 23


----------
Assay: Drug excretion in cynomolgus monkey feces treated with [14C]brivanib alaninate at 10 mg/kg, po administered as single dose via gavage by HPLC analysis
Format: ADME, organism-based, Macaca fascicularis
Settings: in vivo
endpoint: Compound recovery

[[record]]
compound = "Cc1cc2c(F)c(Oc3ncnn4cc(O)c(C)c34)ccc2[nH]1"
endpoint = "Compound recovery"
measured_result = "1.8%"

[[record]]
compound = "Cc1c(OS(=O)(=O)O)cn2ncnc(Oc3ccc4[nH]c(CO)cc4c3F)c12"
endpoint = "Compound recovery"
measured_result = "metabolite_not_detected"

[[record]]
compound = "Cc1c(O)cn2ncnc(Oc3ccc4[nH]c(C(=O)O)cc4c3F)c12"
endpoint = "Compound recovery"
measured_result = "metabolite_not_detected"

[[record]]
compound = "Cc1c(OC[C@@H](C)O)cn2ncnc(Oc3ccc4[nH]c(C(=O)O)cc4c3F)c12"
endpoint = "Compound recovery"
measured_result = "22%"

[[record]]
compound = "Cc1c(O)cn2ncnc(Oc3ccc4[nH]c(CO)cc4c3F)c12"
endpoint = "Compound recovery"
measured_result = "metabolite_not_detected"

[[record]]
compound = "Cc1c(OC[C@@H](C)OS(=O)(=O)O)cn2ncnc(Oc3ccc4[nH]c(C(=O)O)cc4c3F)c12"
endpoint = "Compound recovery"
measured_result = "4%"

[[record]]
compound = "CC(=O)COc1cn2ncnc(Oc3ccc4[nH]c(C)cc4c3F)c2c1C"
endpoint = "Compound recovery"
measured_result = "metabolite_not_detected"

[[record]]
compound = "Cc1cc2c(F)c(Oc3ncnn4cc(OS(=O)(=O)O)c(C)c34)ccc2[nH]1"
endpoint = "Compound recovery"
measured_result = "metabolite_not_detected"

[[record]]
compound = "Cc1cc2c(F)c(Oc3ncnn4cc(OCC(=O)O)c(C)c34)ccc2[nH]1"
endpoint = "Compound recovery"
measured_result = "0.5%"

[[record]]
compound = "Cc1c(OS(=O)(=O)O)cn2ncnc(Oc3ccc4[nH]c(C(=O)O)cc4c3F)c12"
endpoint = "Compound recovery"
measured_result = "metabolite_not_detected"

[[record]]
compound = "Cc1cc2c(F)c(Oc3ncnn4cc(OC[C@@H](C)O[C@@H]5O[C@H](C(=O)O)[C@@H](O)[C@H](O)[C@H]5O)c(C)c34)ccc2[nH]1"
endpoint = "Compound recovery"
measured_result = "metabolite_not_detected"

[[record]]
compound = "Cc1cc2c(F)c(Oc3ncnn4cc(OC[C@@H](C)O)c(C)c34)ccc2[nH]1 [BRIVANIB]"
endpoint = "Compound recovery"
measured_result = "6.5%"

[[record]]
compound = "Cc1cc2c(F)c(Oc3ncnn4cc(OC[C@@H](C)OS(=O)(=O)O)c(C)c34)ccc2[nH]1"
endpoint = "Compound recovery"
measured_result = "35.2%"

[[record]]
compound = "Cc1cc2c(F)c(Oc3ncnn4cc(O[C@@H]5O[C@H](C(=O)O)[C@@H](O)[C@H](O)[C@H]5O)c(C)c34)ccc2[nH]1"
endpoint = "Compound recovery"
measured_result = "metabolite_not_detected"

[[record]]
compound = "Cc1c(OC[C@@H](C)OS(=O)(=O)O)cn2ncnc(Oc3ccc4[nH]c(CO)cc4c3F)c12"
endpoint = "Compound recovery"
measured_result = "2.4%"


The reported numbers originate from ChEMBL document CHEMBL3526109.
